Tested on: 415267-285-R-J2-PDC complex spheroid viability;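 note: luminescence used as stand-in measure of viable cells; spheroids exposed to compounds for one week before readout; 100% = DMSO vehicle control viability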
Test description: Anticancer human tumor 415267-285-R-J2-PDC patient-derived breast carcinoma cell line growth inhibition [POLQ]
Condition description: second compound 0.316 µM; first compound 0.0316 µM; active compounds read low
Measured metric: viability, T/C (%)
Reply with just the number (in %).

Quick one: viability, T/C of CCCS(=O)(=O)Nc1ccc(F)c(C(=O)c2c[nH]c3ncc(-c4ccc(Cl)cc4)cc23)c1F + Cc1cccc(N(C)C(=O)C2C(O)CCN2c2nc(C)cc(C(F)(F)F)c2C#N)c1 ?
105

Name the recorded viability, T/C for CCCS(=O)(=O)Nc1ccc(F)c(C(=O)c2c[nH]c3ncc(-c4ccc(Cl)cc4)cc23)c1F + Nc1ccc(C#CCN(C(=O)Cc2ncc(C(F)(F)F)cc2C(F)(F)F)c2ccc(F)cc2)nn1 .
114

Dear colleague, I am looking for the recorded viability, T/C of the following compound: CCc1cc2c(N3CCc4c(cc(Cn5ccnc5)cc4-c4cn(C)nc4C(F)(F)F)C3=O)cc(C)nc2c(OC)n1 + COC1C(OC(N)=O)C(O)C(Oc2ccc3c(O)c(NC(=O)c4ccc(O)c(CC=C(C)C)c4)c(=O)oc3c2C)OC1(C)C
93.5

What does the data say about its viability, T/C? Entry: O=C(Nc1ccc(O)c(NS(=O)(=O)c2ccc(F)cc2)c1)c1ccc(-c2ccccc2)cc1 + COC1C(OC(N)=O)C(O)C(Oc2ccc3c(O)c(NC(=O)c4ccc(O)c(CC=C(C)C)c4)c(=O)oc3c2C)OC1(C)C
110

For the compound CC(C)n1c(=O)n(C)c2cnc3cc(F)c(-c4ccc(OCCCN5CCCCC5)nc4)cc3c21 + Nc1ccc(C#CCN(C(=O)Cc2ncc(C(F)(F)F)cc2C(F)(F)F)c2ccc(F)cc2)nn1 , what viability, T/C is on record?
102
